These entries and their values trace back to patent US20250326836A1.

target: human cannabinoid type 1 (CB1) receptor (human, UniProt P21554 1-472); experiment: cell-based or functional assay
Sequence (P21554 whole entry): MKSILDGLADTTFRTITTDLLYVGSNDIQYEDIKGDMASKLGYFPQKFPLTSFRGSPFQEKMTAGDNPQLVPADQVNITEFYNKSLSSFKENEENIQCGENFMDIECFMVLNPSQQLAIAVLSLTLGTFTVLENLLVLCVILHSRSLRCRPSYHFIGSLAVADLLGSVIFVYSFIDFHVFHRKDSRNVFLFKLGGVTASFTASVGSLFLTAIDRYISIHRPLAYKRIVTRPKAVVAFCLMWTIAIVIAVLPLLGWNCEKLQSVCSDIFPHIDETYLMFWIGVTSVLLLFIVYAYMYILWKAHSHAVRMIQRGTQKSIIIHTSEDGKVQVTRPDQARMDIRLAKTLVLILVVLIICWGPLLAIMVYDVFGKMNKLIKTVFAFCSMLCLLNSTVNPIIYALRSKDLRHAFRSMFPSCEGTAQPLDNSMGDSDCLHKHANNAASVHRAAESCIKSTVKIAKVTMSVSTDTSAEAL
outcome_measure: cAMP assay IC50 (nM)
Could you give me the number in nM? Just the number is fine.

// known answers, use as guide
m26C7 (antibody, V domains shown) VH: QVQLQQSGAELVKPGASVKISCKASGYEFSYYWMNWVKQRPGKGLEWIGQIYPGDGDTNYNGKFKGKATLTADKSSSTAYMQLSSLTSEDSAVYFCARSHGNYMAYWGQGTSVTVSS VL: QIVLTQSPAIMSASLGERITLTCTASSSVSSSYLHWYQQKPGSSPKLWIYSTSNLASGVPTRFSGSGSGTSFSLTISTMEAEDAATYYCHQYHRSPRTFGGGTKLEIKR	6.5
m2F8 (antibody, V domains shown) VH: QVQLQQSGAELVKPGASVKISCKASGYEFSYYWMNWVKQRPGKGLEWIGQIYPGDGDTNYNGKFKGKATLAAGKSSSTAYMQLSSLTSEDSAVYFCARSHGNYMIYWGQGTSVTVSS VL: QIVLTQSPAIMSASLGERITLTCIASSSVSSSYLHWYQQKPGSSPKLWIYSTSNLASGVPTRFSGSGSGTSFSLTISTMEAEDAATYYCHQYHRSPRTFGGGTKLEIKR	4.9
m4D7 (antibody, V domains shown) VH: QVQLQQSGAELVKPGASVKISCKASGYEFSYYWMNWVKQRPGKGLEWIGQIYPGDGDTNYNGKFKGKATVTADKSSSTAYMQLSSLTSEDSAVYFCAKSHGNYMDYWGQGTSVTVSS VL: QIVLTQSPAIMSASLGERITLTCTASSSVSSSYLHWYQQKPGSSPKLWIYSTSNLASGVPTRFSGSGSGTSFSLTISTMEAEDAATYYCHQYHRSPRTFGGGTKLEIKR	3.9

In the following, a different binder is considered.
Task item: Report measured cAMP assay IC50; entry is mIML1-2 (antibody, V domains shown) VH: QVQLQQSGAELVKPGASVKIACKASGYEFNYYWMNWVKQRPGKGLEWIGQIYPGDGDNKYNGKFKGKATLTADKSSSTVYMQLNSLTSEDSAVYFCARTGSGRFAYWGQGTLVTVSA VL: QIVLTQSPAIMSASPGEKVTMTCRASSSVSSSYLHWYQQKSGASPKLWIYSTSNLASGVPARFSGSGSGTSYSLTITSVEAEDVATYYCQQYSGFPLTFGSGTKLEIKR
Reply: 5.9
